- Tested on: DU-145 prostate
- experimental.details: NCI tumour cell line growth inhibition, 48 h
Reported values of TGI for individual entries

These solved cases illustrate the format of a correct answer.
| compound | result |
| --- | --- |
| C[C@@H]1O[C@@H](OC[C@H]2O[C@@H](OCCc3ccc(O)c(O)c3)[C@H](O)[C@@H](O)[C@@H]2OC(=O)/C=C/c2ccc(O)c(O)c2)[C@H](O)[C@H](O)[C@H]1O | > 100 µM |
| COC(=O)c1cnn2c1n[n+]([O-])c1ccccc12 | > 100 µM |
| CCN(Cc1ccc(Cl)s1)c1ccc(CO)c(Cl)c1 | > 60.4 µM |
| CN(CC(N)=O)C(=O)N(CCCl)N=O | > 100 µM |
| CC1(O)OC(=O)C2=C1CCC1C2CCC2(C)C(O)CCC12 (configuration not stated) | > 100 µM |
| COc1cccc(N2C(=O)C3c4[nH]c5ccc(C)cc5c4C4CCC(C(C)(C)C)CC4C3C2=O)c1 (configuration not stated) | > 10 µM |
| COc1ccc(C2[C@@H](Cl)C(=O)N2c2cc(OC)c(OC)c(OC)c2)cc1Cl (some centres not stated) | > 100 µM |
| c1ccc2c3c([nH]c2c1)C1CCCN1CC3 (configuration not stated) | > 10 µM |

Request: Query: TGI; subject: C/C(=C/CC[C@]1(CO)CC[C@]2(CO)[C@H](CC[C@@H]3[C@@]4(C)CC[C@H](OC5OCC(O)C(O)C5OC5OC(CO)C(O)C(O)C5O)C(C)(C)[C@@H]4CC[C@]32C)[C@H]1O)CO (some centres not stated)
Result: > 100 µM

Request: Query: TGI; subject: O=[N+]([O-])c1cc(S(=O)(=O)Oc2ccccc2)ccc1Cl
Result: 3.24 µM

Request: Query: TGI; subject: OC(c1cc2cc(Cl)c(Cl)cc2c2cc(C(F)(F)F)ccc12)C1CCCCN1 (configuration not stated)
Result: 3.36 µM

Request: Query: TGI; subject: COC12c3ccccc3-c3ccccc3C1[C@H]1C(=O)OC(=O)[C@H]12 (some centres not stated)
Result: > 10 µM

====

- Test system: SF-268 CNS
- experimental.details: NCI tumour cell line growth inhibition, 48 h
Reported values of TGI for individual entries

| compound | target.system | TGI |
| --- | --- | --- |
| CC1(C)OCC(C(O)C2OC(C)(C)OC2/C=N\O)O1 (stereo not drawn) | SF-268 CNS | > 100 µM |
| COC12c3ccccc3-c3ccccc3C1[C@H]1C(=O)OC(=O)[C@H]12 (stereo partly drawn) | SF-268 CNS | > 10 µM |
| CC1(C)C2CCC13CS(=O)(=O)N1O[C@]13C(=O)O2 (stereo partly drawn) | SF-268 CNS | > 100 µM |

Request: Query: TGI; subject: C[C@@H]1O[C@@H](O[C@H]2CC[C@@]3(C)[C@H](CCC4[C@@H]3C(O)C[C@]3(C)[C@@H](c5ccc(=O)oc5)CC[C@]43O)C2)[C@H](O)[C@H](O)[C@H]1O (stereo partly drawn)
Result: 0.00502 µM

Request: Query: TGI; subject: O=C(Oc1cccnc1)c1ccsc1Nc1ccnc(C(F)(F)F)c1
Result: > 100 µM

Request: Query: TGI; subject: O=C(Nc1cccc(Nc2ncc(Br)c(NCCc3cnc[nH]3)n2)c1)N1CCCC1
Result: 13.9 µM

Request: Query: TGI; subject: CNc1ccc(N)cc1C(=O)N1CCC[C@H]1CO
Result: > 100 µM

Request: Query: TGI; subject: COc1ccc(-c2cc(=O)c3c(OC)c(OC)c(OC)c(OC)c3o2)cc1
Result: > 100 µM

Request: Query: TGI; subject: O=C(CC(=O)Nc1ccccc1)N/N=C/c1cc(N=Nc2ccc(Br)cc2)ccc1O
Result: > 10 µM

Attribution: PubChem BioAssay (NCI)
